Reference source: patent US20240116985A1

# Assay Summary: Solubility in PBS
# Type: physicochemical
Quick reference for Solubility among some molecules
Lab book: enter the figure in µM, no units written.

Some solved entries appear below for comparison.
{"Molecule": "CC[C@H](C)[C@@H]1NC(=O)[C@H](CC(=O)O)NC(=O)[C@]2(CC=CCCCC3(CCCC=CCCCCCC[C@@](C)(C(=O)N[C@@H](Cc4ccccc4)C(=O)N[C@@H](Cc4csc5ccccc45)C(=O)N[C@@H](CCC(N)=O)C(N)=O)NC(=O)[C@H](CCC(N)=O)NC(=O)[C@H](Cc4ccccc4)NC(=O)[C@H](C)NC(=O)[C@H](CCC(N)=O)NC(=O)[C@H](CCC(=O)O)NC(=O)[C@H](CC(=O)O)NC3=O)NC1=O)CCCN2C(C)=O (stereo partly drawn) [I-654]", "Unit Info": "µM", "Solubility": 47}
{"Molecule": "CC(=O)N1CCC[C@]12CC=CCCCC1(CCCC=CCCCOC(=O)N3CC[C@@](C(=O)N[C@@H](Cc4ccsc4)C(=O)N[C@@H](Cc4csc5ccccc45)C(=O)N[C@@H](Cc4c[nH]cn4)C(N)=O)(C3)NC(=O)[C@H](Cc3ccccc3)NC(=O)[C@H](Cc3ccccc3)NC(=O)[C@H](C)NC(=O)[C@H](C)NC(=O)[C@H](CC(=O)O)NC(=O)[C@H](CC(=O)O)NC1=O)NC(=O)[C@H](CC(C)(C)C)NC(=O)[C@H](CC(=O)O)NC2=O (stereo partly drawn)", "Unit Info": "µM", "Solubility": 10}

Given CC(=O)N1CCC[C@]12CC=CCCCC1(CCCC=CCCCCCC[C@@](C)(C(=O)N[C@@H](Cc3ccccc3)C(=O)N[C@@H](Cc3csc4ccccc34)C(=O)N[C@@H](Cc3c[nH]cn3)C(N)=O)NC(=O)[C@H](CC(N)=O)NC(=O)[C@H](Cc3ccccc3)NC(=O)[C@H](C)NC(=O)[C@H](C)NC(=O)[C@H](CCC(=O)O)NC(=O)[C@H](CC(=O)O)NC1=O)NC(=O)[C@H](C)NC(=O)[C@H](CC(=O)O)NC2=O (stereo partly drawn) [I-422] , state its recorded Solubility. 24
